In this section we review reported Kd values for a set of compounds.
Molecular target: ITSN1-5 SH3 domain (aa 1155-1214) (Homo sapiens)
Sequence (Q15811 1155-1214): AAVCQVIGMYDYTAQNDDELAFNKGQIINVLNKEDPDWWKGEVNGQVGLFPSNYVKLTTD
Peptide text beside a SMILES is read from it.

compound: CC(C)C[C@H](NC(=O)[C@H](Cc1c[nH]cn1)NC(=O)[C@H](CC(C)C)NC(=O)[C@@H]1CCCN1C(=O)[C@H](CO)NC(=O)[C@H](CO)NC(=O)[C@@H](N)CO)C(=O)N[C@@H](CCC(N)=O)C(=O)N1CCC[C@H]1C(=O)N1CCC[C@H]1C(=O)N1CCC[C@H]1C(=O)N[C@@H](CC(C)C)C(=O)NCC(=O)N[C@@H](CCCCN)C(=O)N[C@@H](CCCCN)C(=O)O [Peptide P6] (H-SSSPLHLQPPPLGKK-OH; N-terminus and C-terminus assumed)
test-target: ITSN1-5 SH3 domain (aa 1155-1214) (Homo sapiens)
Kd: > 200 µM
--
compound: CC[C@H](C)[C@H](NC(=O)[C@H](Cc1c[nH]cn1)NC(=O)[C@@H](N)CCC(N)=O)C(=O)N1CCC[C@H]1C(=O)N[C@@H](CCCCN)C(=O)N[C@@H](CC(C)C)C(=O)N1CCC[C@H]1C(=O)N1CCC[C@H]1C(=O)N[C@@H](CCCCN)C(=O)N[C@H](C(=O)N[C@@H](Cc1ccc(O)cc1)C(=O)O)[C@@H](C)O [Peptide P10] (H-QHIPKLPPKTY-OH; N-terminus and C-terminus assumed)
test-target: ITSN1-5 SH3 domain (aa 1155-1214) (Homo sapiens)
Kd: > 200 µM

----------
pKd: −log10 of the molar value. Peptide text beside a SMILES is read from it.
Let's go through some pKd measurements on BIN1 SH3 domain (aa 520-593) (Homo sapiens, UniProt O00499) together.
Sequence (O00499 520-593): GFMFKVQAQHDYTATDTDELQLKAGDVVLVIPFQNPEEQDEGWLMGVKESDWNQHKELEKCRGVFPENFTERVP
readout-type: pKd

compound: CC(C)C[C@H](NC(=O)[C@@H]1CCCN1C(=O)[C@@H]1CCCN1C(=O)[C@H](CO)NC(=O)[C@@H]1CCCN1C(=O)[C@H](CC(C)C)NC(=O)[C@H](Cc1c[nH]cn1)NC(=O)[C@@H](N)CCCNC(=N)N)C(=O)N[C@H](C(=O)N[C@@H](CCC(N)=O)C(=O)O)[C@@H](C)O [Peptide P8] (H-RHLPSPPLTQ-OH; N-terminus and C-terminus assumed)
observed-measurement: < 3.70
--
compound: CC(C)[C@H](N)C(=O)N1CCC[C@H]1C(=O)N[C@H](C(=O)N1CCC[C@H]1C(=O)N1CCC[C@H]1C(=O)N1CCC[C@H]1C(=O)N[C@H](C(=O)N1CCC[C@H]1C(=O)N1CCC[C@H]1C(=O)N[C@@H](CCCNC(=N)N)C(=O)N[C@@H](CCCNC(=N)N)C(=O)N[C@@H](CCCNC(=N)N)C(=O)O)C(C)C)C(C)C [RP1, reference compound]
observed-measurement: < 3.70
--
compound: CC(C)C[C@H](NC(=O)[C@@H](NC(=O)[C@@H](N)C(C)C)[C@@H](C)O)C(=O)N1CCC[C@H]1C(=O)N[C@@H](Cc1c[nH]cn1)C(=O)NCC(=O)N1CCC[C@H]1C(=O)N[C@@H](CCCNC(=N)N)C(=O)N[C@@H](CO)C(=O)N[C@@H](C)C(=O)O [Peptide P2] (H-VTLPHGPRSA-OH)
observed-measurement: < 3.70

----------
Peptide text beside a SMILES is read from it.
Let's go through some Kd measurements on DLG2 SH3 domain (aa 536-606) (Homo sapiens) together.
Sequence (Q15700 536-606): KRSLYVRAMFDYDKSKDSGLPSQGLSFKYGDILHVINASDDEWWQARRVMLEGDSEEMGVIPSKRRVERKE

molecule: CC[C@H](C)[C@H](NC(=O)[C@H](C)NC(=O)[C@@H]1CCCN1C(=O)[C@@H]1CCCN1C(=O)[C@H](CO)NC(=O)[C@H](CC(=O)O)NC(=O)[C@@H](N)CC(C)C)C(=O)N1CCC[C@H]1C(=O)N1CCC[C@H]1C(=O)N[C@@H](CCCNC(=N)N)C(=O)N[C@@H](CCC(N)=O)C(=O)N1CCC[C@H]1C(=O)N[C@H](C(=O)N[C@@H](CO)C(=O)N[C@@H](CCCCN)C(=O)O)[C@@H](C)O [Peptide P4] (H-LDSPPAIPPRQPTSK-OH)
test-target: DLG2 SH3 domain (aa 536-606) (Homo sapiens)
Kd: > 200 µM
--
molecule: CC(C)[C@H](NC(=O)[C@@H]1CCCN1C(=O)[C@@H]1CCCN1C(=O)[C@H](C)NC(=O)[C@H](CCC(=O)O)NC(=O)[C@H](CS)NC(=O)[C@@H](N)CCCNC(=N)N)C(=O)N1CCC[C@H]1C(=O)N1CCC[C@H]1C(=O)N[C@@H](CCCNC(=N)N)C(=O)N[C@@H](CCCNC(=N)N)C(=O)N[C@@H](CCC(=O)O)C(=O)N[C@@H](CCCNC(=N)N)C(=O)NCC(=O)O [RP2, reference compound] (H-RCEAPPVPPRRERG-OH)
test-target: DLG2 SH3 domain (aa 536-606) (Homo sapiens)
Kd: > 200 µM

----------
Target: NCK1-1 SH3 domain (aa 2-61) (Homo sapiens)
Construct: 2-61; GST (N); made in house; host or cells: Escherichia coli CodonPlus, Rosetta, BL21(DE3)
Assay: Fluorescence polarization SH3 domain-PRP binding
Details: FP, 0.2 µM fluorescein-labeled peptide, SH3 domain 0-200 µM, Tris/HCl pH 7.5, 25 °C, quadratic fit, read-out: Kd
Peptide text beside a SMILES is read from it.

compound: CC(C)C[C@H](NC(=O)[C@H](Cc1c[nH]cn1)NC(=O)[C@H](CC(C)C)NC(=O)[C@@H]1CCCN1C(=O)[C@H](CO)NC(=O)[C@H](CO)NC(=O)[C@@H](N)CO)C(=O)N[C@@H](CCC(N)=O)C(=O)N1CCC[C@H]1C(=O)N1CCC[C@H]1C(=O)N1CCC[C@H]1C(=O)N[C@@H](CC(C)C)C(=O)NCC(=O)N[C@@H](CCCCN)C(=O)N[C@@H](CCCCN)C(=O)O [Peptide P6] (H-SSSPLHLQPPPLGKK-OH; N-terminus and C-terminus assumed)
test-target: NCK1-1 SH3 domain (aa 2-61) (Homo sapiens)
Kd: > 200 µM

----------
In this section we review reported Kd values for a set of compounds.
Target: ABL2 SH3 domain (aa 107-167) (Homo sapiens, UniProt P42684)
Sequence (P42684 107-167): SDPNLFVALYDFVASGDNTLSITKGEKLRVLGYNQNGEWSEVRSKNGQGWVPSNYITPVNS
Peptide text beside a SMILES is read from it.

compound: CC[C@H](C)[C@H](NC(=O)[C@H](Cc1c[nH]cn1)NC(=O)[C@@H](N)CCC(N)=O)C(=O)N1CCC[C@H]1C(=O)N[C@@H](CCCCN)C(=O)N[C@@H](CC(C)C)C(=O)N1CCC[C@H]1C(=O)N1CCC[C@H]1C(=O)N[C@@H](CCCCN)C(=O)N[C@H](C(=O)N[C@@H](Cc1ccc(O)cc1)C(=O)O)[C@@H](C)O [Peptide P10] (H-QHIPKLPPKTY-OH; N-terminus and C-terminus assumed)
test-target: ABL2 SH3 domain (aa 107-167) (Homo sapiens, UniProt P42684)
Kd: > 200 µM

compound: CC(C)C[C@H](NC(=O)[C@@H]1CCCN1C(=O)[C@@H]1CCCN1C(=O)[C@H](CO)NC(=O)[C@@H]1CCCN1C(=O)[C@H](CC(C)C)NC(=O)[C@H](Cc1c[nH]cn1)NC(=O)[C@@H](N)CCCNC(=N)N)C(=O)N[C@H](C(=O)N[C@@H](CCC(N)=O)C(=O)O)[C@@H](C)O [Peptide P8] (H-RHLPSPPLTQ-OH; N-terminus and C-terminus assumed)
test-target: ABL2 SH3 domain (aa 107-167) (Homo sapiens, UniProt P42684)
Kd: > 200 µM

compound: CC(C)C[C@H](NC(=O)[C@H](Cc1c[nH]cn1)NC(=O)[C@H](CC(C)C)NC(=O)[C@@H]1CCCN1C(=O)[C@H](CO)NC(=O)[C@H](CO)NC(=O)[C@@H](N)CO)C(=O)N[C@@H](CCC(N)=O)C(=O)N1CCC[C@H]1C(=O)N1CCC[C@H]1C(=O)N1CCC[C@H]1C(=O)N[C@@H](CC(C)C)C(=O)NCC(=O)N[C@@H](CCCCN)C(=O)N[C@@H](CCCCN)C(=O)O [Peptide P6] (H-SSSPLHLQPPPLGKK-OH; N-terminus and C-terminus assumed)
test-target: ABL2 SH3 domain (aa 107-167) (Homo sapiens, UniProt P42684)
Kd: > 200 µM

----------
Target: ITSN1-4 SH3 domain (aa 1070-1138) (Homo sapiens, UniProt Q15811)
Sequence (Q15811 1070-1138): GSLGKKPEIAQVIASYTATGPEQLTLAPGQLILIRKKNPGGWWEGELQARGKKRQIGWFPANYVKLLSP
pKd: −log10 of the molar value. Peptide text beside a SMILES is read from it.

molecule: CC(C)C[C@H](NC(=O)[C@@H]1CCCN1C(=O)[C@@H](NC(=O)[C@H](CCCNC(=N)N)NC(=O)[C@@H]1CCCN1C(=O)[C@H](CO)NC(=O)[C@H](CC(N)=O)NC(=O)[C@@H]1CCCN1C(=O)[C@H](C)NC(=O)[C@@H](N)CO)[C@@H](C)O)C(=O)N[C@H](C(=O)N1CCC[C@H]1C(=O)N1CCC[C@H]1C(=O)N1CCC[C@H]1C(=O)N[C@@H](C)C(=O)N[C@@H](CO)C(=O)O)[C@@H](C)O [Peptide P1] (H-SAPNSPRTPLTPPPAS-OH)
pKd: < 3.70
--
molecule: CC[C@H](C)[C@H](N)C(=O)N[C@@H](C)C(=O)NCC(=O)N1CCC[C@H]1C(=O)N1CCC[C@H]1C(=O)N[C@H](C(=O)N1CCC[C@H]1C(=O)N1CCC[C@H]1C(=O)N[C@@H](CCCNC(=N)N)C(=O)N[C@@H](CCC(N)=O)C(=O)N[C@@H](CO)C(=O)O)C(C)C [Peptide P9] (H-IAGPPVPPRQS-OH)
pKd: < 3.70
--
molecule: CC(C)C[C@H](NC(=O)[C@@H]1CCCN1C(=O)[C@@H]1CCCN1C(=O)[C@H](CO)NC(=O)[C@@H]1CCCN1C(=O)[C@H](CC(C)C)NC(=O)[C@H](Cc1c[nH]cn1)NC(=O)[C@@H](N)CCCNC(=N)N)C(=O)N[C@H](C(=O)N[C@@H](CCC(N)=O)C(=O)O)[C@@H](C)O [Peptide P8] (H-RHLPSPPLTQ-OH; N-terminus and C-terminus assumed)
pKd: < 3.70
